Test: Plasma PK of ANEB-001 and THC, 30 mg or 10 mg oral Compound 1 with 21 mg THC (Example 4)
Assay type: in vivo, human
Settings: human, in vivo, 21 mg THC + 30 mg ANEB-001; 02H00M; read-out: THC in Plasma (concentration), Mean
REPORTED_ENDPOINT: concentration at 2 h (ng/mL)
Hi! Could you send only the number? It should be in ng/mL, unit omitted.

Exam item: Tell me the measured concentration at 2 h of CCCCCc1cc(O)c2c(c1)OC(C)(C)[C@@H]1CCC(C)=C[C@@H]21 [THC, Δ9-tetrahydrocannabinol] , please.
Marked response: 4.07
